- STUDY SYSTEM: aspartate N-acetyltransferase (ANAT) (Homo sapiens)
- Construct: 6xHis (C)
- Sequence (Q8N9F0 1-302): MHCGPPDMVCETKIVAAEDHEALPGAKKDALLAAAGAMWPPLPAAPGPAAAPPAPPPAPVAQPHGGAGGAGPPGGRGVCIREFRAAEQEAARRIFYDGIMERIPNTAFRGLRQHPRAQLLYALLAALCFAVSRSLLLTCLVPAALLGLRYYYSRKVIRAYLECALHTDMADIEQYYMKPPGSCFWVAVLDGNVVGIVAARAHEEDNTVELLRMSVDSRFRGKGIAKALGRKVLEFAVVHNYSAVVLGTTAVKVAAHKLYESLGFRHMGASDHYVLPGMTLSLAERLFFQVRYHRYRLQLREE
- ASSAY: ANAT in vitro activity assay (DTNB, coenzyme A production)
- PROTOCOL CONDITIONS: dose-response protocol; competitive inhibition fit, Km for L-aspartate 160 μM
Parameter: Ki. Scope: all listed entries.
# output: bare number, implied unit µM

Sample answers from the record:
RECORD SMILES	Ki / µM
CCOC(=O)c1sc(NC(=O)COC(=O)Cn2c(=O)cnc3ccccc32)cc1C	8.5
Cc1nnc(SCc2nnc(-c3c(-c4ccccc4)noc3C)o2)s1	9.1

Item Nc1cc(N)nc(SCc2ncc(-c3ccc(F)cc3)o2)n1 : provide Ki
8.2

Look up and report measured Ki for this entry: Cc1c(C(=O)O)sc2[nH]c(=O)cc(CSc3nnc(C4CC4)[nH]3)c12
4.5

Note Ki for the compound shown: O=C(OCCSc1ccc([N+](=O)[O-])c2nonc12)c1ccc(Cl)cc1Cl
0.91
